- System: CCRIS mutagenicity, Ames/micronucleus/aberration tests
- protocol-summary: CCRIS mutagenicity studies
- stated-conditions: Test System: AMES SALMONELLA TYPHIMURIUM; Strain/Indicator: TA1535; Metabolic Activation: RAT, LIVER, S-9, AROCLOR 1254; Method: STANDARD PLATE
Active and inactive are the calls of the source. The rule behind the calls is not given here.
Possible outcomes: label 1 = active, label 0 = inactive

[[record]]
compound = "OCCCc1ccccc1"
measurement_target = "CCRIS mutagenicity, Ames/micronucleus/aberration tests"
class_assignment = "label 0"

[[record]]
compound = "CC1(C)[C@@H]2CC[C@@]1(C)C(=O)C2=O"
measurement_target = "CCRIS mutagenicity, Ames/micronucleus/aberration tests"
class_assignment = "label 0"

[[record]]
compound = "CC1CO1 (stereo not drawn)"
measurement_target = "CCRIS mutagenicity, Ames/micronucleus/aberration tests"
class_assignment = "label 1"

[[record]]
compound = "Cc1ccc(N)cc1Cl"
measurement_target = "CCRIS mutagenicity, Ames/micronucleus/aberration tests"
class_assignment = "label 0"

[[record]]
compound = "Nc1ccccc1C(F)(F)F"
measurement_target = "CCRIS mutagenicity, Ames/micronucleus/aberration tests"
class_assignment = "label 0"

[[record]]
compound = "CC(=O)Oc1ccccc1C(=O)Oc1ccccc1C(=O)O"
measurement_target = "CCRIS mutagenicity, Ames/micronucleus/aberration tests"
class_assignment = "label 0"

[[record]]
compound = "Cc1cc(Cl)ccc1OCC(=O)O"
measurement_target = "CCRIS mutagenicity, Ames/micronucleus/aberration tests"
class_assignment = "label 0"

[[record]]
compound = "CS(=O)(=O)n1ncc(Cl)c(Cl)c1=O"
measurement_target = "CCRIS mutagenicity, Ames/micronucleus/aberration tests"
class_assignment = "label 0"


###

- System: CCRIS mutagenicity, Ames/micronucleus/aberration tests
- protocol-summary: CCRIS mutagenicity studies
- stated-conditions: Test System: E. COLI; Strain/Indicator: WP2 UVRA; Metabolic Activation: MOUSE, LIVER, S-9; Method: STANDARD PLATE
Active and inactive are the calls of the source. No rule for the calls is given here.
Possible outcomes: 1 (yes) for active, 0 (no) for inactive

[[record]]
molecule = "O=[N+]([O-])c1cccc2ccccc12"
class_assignment = "0 (no)"

[[record]]
molecule = "CNNCc1ccc(C(=O)NC(C)C)cc1"
class_assignment = "0 (no)"

[[record]]
molecule = "Nc1ccccc1"
class_assignment = "0 (no)"

[[record]]
molecule = "NC(N)=S"
class_assignment = "0 (no)"

[[record]]
molecule = "COS(C)(=O)=O"
class_assignment = "1 (yes)"

[[record]]
molecule = "c1cc2ccc3cccc4ccc(c1)c2c34"
class_assignment = "0 (no)"

[[record]]
molecule = "CCOc1ccc(NC(C)=O)cc1"
class_assignment = "0 (no)"

[[record]]
molecule = "O=P1(N(CCCl)CCCl)NCCCO1 (stereo not given)"
class_assignment = "0 (no)"

[[record]]
molecule = "c1ccc2c(c1)ccc1ccccc12"
class_assignment = "0 (no)"

[[record]]
molecule = "Nc1ccc2c(c1)C(=O)c1ccccc1C2=O"
class_assignment = "0 (no)"


###

- Tested on: CCRIS mutagenicity, Ames/micronucleus/aberration tests
- protocol-summary: CCRIS mutagenicity studies
- stated-conditions: Test System: AMES SALMONELLA TYPHIMURIUM; Strain/Indicator: TA98; Metabolic Activation: RAT, LIVER, S-9; Method: STANDARD PLATE
The source made the active and inactive calls. The rule behind the calls is not given here.
Possible outcomes: active, inactive

[[record]]
compound = "Nc1ccccc1"
class_assignment = "inactive"

[[record]]
compound = "CNC(=O)CSP(=S)(OC)OC"
class_assignment = "inactive"

[[record]]
compound = "CCC1(CC(=O)O)OCCc2c1[nH]c1c(C(C)O)cccc21 (stereo unspecified)"
class_assignment = "inactive"

[[record]]
compound = "Nc1ccc2c(c1)C(=O)c1ccccc1C2=O"
class_assignment = "active"

[[record]]
compound = "Cc1cccc(N=Nc2c(O)ccc3ccccc23)c1C"
class_assignment = "inactive"

[[record]]
compound = "CC1(C)COC1=O"
class_assignment = "inactive"

[[record]]
compound = "NC1CCC(N)CC1 (stereo unspecified)"
class_assignment = "inactive"

[[record]]
compound = "CCOP(=O)(NC(C)C)Oc1ccccc1C(=O)OC(C)C (stereo unspecified)"
class_assignment = "active"

[[record]]
compound = "CN(C)CCCNc1c2ccccc2nc2c([N+](=O)[O-])cccc12"
class_assignment = "active"

[[record]]
compound = "C=C(C)C1Cc2c(cc(O)c3c(=O)c4ccccc4n(C)c23)O1 (stereo unspecified)"
class_assignment = "active"

[[record]]
compound = "Cn1c2ccccc2c(=O)c2c(O)cc3c(c21)CC(C1(C)CO1)O3 (stereo unspecified)"
class_assignment = "active"

[[record]]
compound = "CNC(=O)N(O)C(C)=O"
class_assignment = "active"

[[record]]
compound = "Nc1ccc(CC(=O)O)cc1"
class_assignment = "active"

[[record]]
compound = "CCOP(=O)(Oc1ccc([N+](=O)[O-])cc1)c1ccccc1 (stereo unspecified)"
class_assignment = "inactive"

[[record]]
compound = "CNC(=O)ON"
class_assignment = "active"

[[record]]
compound = "Cc1ccc(N=Nc2c(O)ccc3ccccc23)cc1C"
class_assignment = "inactive"

